Biological target: T1, TRAIL (TNF-related apoptosis inducing ligand) ectodomain (UniProt P50591 39-281)
T1 construct: also called TNFSF10; Apo2L
T1 sequence (P50591 39-281): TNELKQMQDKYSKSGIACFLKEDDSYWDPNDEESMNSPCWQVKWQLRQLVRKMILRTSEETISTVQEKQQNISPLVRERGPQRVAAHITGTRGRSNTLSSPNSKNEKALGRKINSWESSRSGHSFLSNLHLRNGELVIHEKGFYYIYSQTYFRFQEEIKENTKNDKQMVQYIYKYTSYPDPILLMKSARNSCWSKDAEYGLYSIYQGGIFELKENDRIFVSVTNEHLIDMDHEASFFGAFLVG
Assay: SPR
Settings: one partner purified
property_label: pKd
Numbers only, as −log10 of the molar value.

human TRAIL-R2-Fc P150A (Fc fusion, source: Sf9 insect cells, culture supernatant; not shown: Fc (human IgG1), C-terminal, kept) QQDLAPQQRAAPQQKRSSPSEGLCPPGHHISEDGRDCISCKYGQDYSTHWNDLLFCLRCTRCDSGEVELSPCTTTRNTVCQCEEGTFREEDSAEMCRKCRTGCPRGMVKVGDCTPWSDIECVHKESG : 8.37
human TRAIL-R2-Fc M152A (Fc fusion, source: Sf9 insect cells, culture supernatant; not shown: Fc (human IgG1), C-terminal, kept) QQDLAPQQRAAPQQKRSSPSEGLCPPGHHISEDGRDCISCKYGQDYSTHWNDLLFCLRCTRCDSGEVELSPCTTTRNTVCQCEEGTFREEDSPEACRKCRTGCPRGMVKVGDCTPWSDIECVHKESG : 6.69
human TRAIL-R2-Fc D148A (Fc fusion, source: Sf9 insect cells, culture supernatant; not shown: Fc (human IgG1), C-terminal, kept) QQDLAPQQRAAPQQKRSSPSEGLCPPGHHISEDGRDCISCKYGQDYSTHWNDLLFCLRCTRCDSGEVELSPCTTTRNTVCQCEEGTFREEASPEMCRKCRTGCPRGMVKVGDCTPWSDIECVHKESG : 8.35

Now, please, on to the next binder.
stdin: Let me know recorded pKd for human TRAIL-R2-Fc K155A (Fc fusion, source: Sf9 insect cells, culture supernatant; not shown: Fc (human IgG1), C-terminal, kept) QQDLAPQQRAAPQQKRSSPSEGLCPPGHHISEDGRDCISCKYGQDYSTHWNDLLFCLRCTRCDSGEVELSPCTTTRNTVCQCEEGTFREEDSPEMCRACRTGCPRGMVKVGDCTPWSDIECVHKESG , thanks.
stdout: 7.40
